target: SARS-CoV-2 S-RBD with Avi-tag and deca-His tag (residues 330-531) (SARS-CoV-2, UniProt P0DTC2, biotin on the Avi tag (BirA) where immobilised on streptavidin sensors or used in ELISA and FSEC)

- binder: "SR3 (VHH) VHH: QVQLVESGGGLVQAGGSLRLSCAASGFPVWQEEMEWYRQAPGKEREWVAAITSYGDTTYYADSVKGRFTISRDNAKNTVYLQMNSLKPEDTAVYYCVVYVGGTYIGQGTQVTVS"
  binding result: "binds"
- binder: "SR48 (VHH) VHH: QVQLVESGGGLVQAGGSLRLSCAASGFPVNQNNMHWYRQAPGKEREWVAAIYSSGDFTLYADSVKGRFTISRDNAKNTVYLQMNSLKPEDTAVYYCEVQVGFWYTGQGTQVTVS"
  binding result: "binds"
- binder: "SR46 (VHH) VHH: QVQLVESGGGLVQAGGSLRLSCAASGFPVFTENMHWYRQAPGKEREWVAAIYSYGVWTLYADSVKGRFTISRDNAKNTVYLQMNSLKPEDTAVYYCVVQVGEWYEGQGTQVTVS"
  binding result: "binds"
- binder: "SR27 (VHH) VHH: QVQLVESGGGLVQAGGSLRLSCAASGFPVWEAEMEWYRQAPGKEREWVAAISSIGTSTAYADSVKGRFTISRDNAKNTVYLQMNSLKPEDTAVYYCIVYVGKTYIGQGTQVTVS"
  binding result: "binds"
